Target: Full length Human FAK (Flag-His-TEV-FAK1) (Homo sapiens, UniProt Q05397)
Construct: Full length Human FAK was expressed using baculovirus in Sf9 cells; made in house; host or cells: baculovirus in Sf9 cells
Sequence (Q05397 whole entry): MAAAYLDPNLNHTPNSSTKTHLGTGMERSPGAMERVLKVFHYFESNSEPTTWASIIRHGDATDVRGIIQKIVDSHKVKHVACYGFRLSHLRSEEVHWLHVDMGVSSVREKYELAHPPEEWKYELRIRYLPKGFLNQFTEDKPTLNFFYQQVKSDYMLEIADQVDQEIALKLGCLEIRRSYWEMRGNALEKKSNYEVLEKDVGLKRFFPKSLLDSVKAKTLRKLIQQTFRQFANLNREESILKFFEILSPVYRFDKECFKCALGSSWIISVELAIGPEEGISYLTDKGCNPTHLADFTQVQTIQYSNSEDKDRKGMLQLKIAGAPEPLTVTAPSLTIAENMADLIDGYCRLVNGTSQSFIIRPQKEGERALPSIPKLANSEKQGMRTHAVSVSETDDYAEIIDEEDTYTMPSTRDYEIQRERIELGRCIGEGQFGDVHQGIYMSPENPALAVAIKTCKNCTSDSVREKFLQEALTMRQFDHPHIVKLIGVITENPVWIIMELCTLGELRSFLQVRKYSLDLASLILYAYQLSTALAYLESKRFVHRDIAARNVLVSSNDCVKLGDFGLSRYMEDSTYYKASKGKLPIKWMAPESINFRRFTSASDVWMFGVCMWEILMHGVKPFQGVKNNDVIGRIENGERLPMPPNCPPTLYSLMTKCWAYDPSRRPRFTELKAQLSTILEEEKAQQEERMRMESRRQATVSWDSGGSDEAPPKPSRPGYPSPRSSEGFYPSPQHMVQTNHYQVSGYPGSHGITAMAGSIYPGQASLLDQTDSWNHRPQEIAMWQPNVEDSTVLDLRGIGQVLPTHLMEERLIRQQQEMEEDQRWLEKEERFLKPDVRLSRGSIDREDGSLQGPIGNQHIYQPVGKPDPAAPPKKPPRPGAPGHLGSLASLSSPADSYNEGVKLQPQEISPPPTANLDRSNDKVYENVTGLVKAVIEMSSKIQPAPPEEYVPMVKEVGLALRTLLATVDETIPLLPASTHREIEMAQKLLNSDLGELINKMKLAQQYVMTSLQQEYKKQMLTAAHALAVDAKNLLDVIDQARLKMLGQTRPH
Assay: Biochemical assay for FAK activity, Assay 2: LANCE Ultra ULight peptide phosphorylation, 665 nm/615 nm ratio
Details: Flag-His-TEV-FAK1, 10 μM ATP, 30 min pre-incubation; read-out: Assay 2 FAK H 31284A TRF PXC50 (converted)
measuredMetric: IC50 (nM)

> print(dat)
                            structuresmiles  measuredmetric  assayresult
1  CCn1nc(CO)cc1Nc1cc(Nc2c(F)cccc2C(=O)NC)c(C(F)(F)F)cn1            IC50           10
2  CNC(=O)c1ccccc1Nc1cc(Nc2cn(C)nc2C)ncc1Cl            IC50         3.98
3  CONC(=O)c1ccccc1Nc1cc(Nc2cc(CO)nn2C(C)C)ncc1Cl            IC50         6.31
4  CCn1nccc1Nc1cc(Nc2ccc(Cl)cc2C(=O)NC)c(Cl)cn1            IC50         5.01
5  CCn1ncc(C)c1Nc1cc(Nc2ccccc2C(=O)NOC)c(Cl)cn1            IC50         12.6
